Each record here notes measured residual activity.
biological target: Tyrosine-protein kinase Fes/Fps (Homo sapiens) (UniProt P07332); details: at 1 µM
Sequence (P07332 whole entry): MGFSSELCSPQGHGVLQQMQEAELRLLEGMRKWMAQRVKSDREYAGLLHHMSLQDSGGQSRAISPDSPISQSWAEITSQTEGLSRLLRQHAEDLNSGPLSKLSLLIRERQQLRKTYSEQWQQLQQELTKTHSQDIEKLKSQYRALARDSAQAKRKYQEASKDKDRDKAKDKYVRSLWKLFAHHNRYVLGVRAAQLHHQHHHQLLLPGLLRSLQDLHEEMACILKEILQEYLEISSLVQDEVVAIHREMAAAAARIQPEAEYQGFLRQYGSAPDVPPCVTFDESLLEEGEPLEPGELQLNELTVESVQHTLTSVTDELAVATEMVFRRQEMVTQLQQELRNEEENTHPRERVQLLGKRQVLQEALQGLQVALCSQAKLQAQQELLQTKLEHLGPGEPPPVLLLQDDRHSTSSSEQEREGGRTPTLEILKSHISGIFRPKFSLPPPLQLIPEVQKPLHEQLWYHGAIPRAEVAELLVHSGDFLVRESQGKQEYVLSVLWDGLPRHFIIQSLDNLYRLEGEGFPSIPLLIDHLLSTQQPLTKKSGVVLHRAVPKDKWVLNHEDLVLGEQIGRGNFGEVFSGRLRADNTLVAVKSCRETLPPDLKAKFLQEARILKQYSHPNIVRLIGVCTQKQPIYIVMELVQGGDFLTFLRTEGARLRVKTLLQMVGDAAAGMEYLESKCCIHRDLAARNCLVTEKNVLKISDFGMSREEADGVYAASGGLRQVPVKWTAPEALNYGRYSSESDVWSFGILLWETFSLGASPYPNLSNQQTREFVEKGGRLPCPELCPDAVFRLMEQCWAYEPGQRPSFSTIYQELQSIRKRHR
Give the quantity in %, number only.

- Structure As Smiles: "COc1cc2ncnc(Nc3ccc(Oc4ccccc4)cc3)c2cc1OC"
  Unit Abbreviation: "%"
  residual activity: 102
- Structure As Smiles: "COc1ccc(CNc2nc(N(CCO)CCO)nc3c2ncn3C(C)C)cc1"
  Unit Abbreviation: "%"
  residual activity: 62
- Structure As Smiles: "O=C(O)c1ccc2c3c1cccc3c(=O)n1c3ccccc3nc21"
  Unit Abbreviation: "%"
  residual activity: 98
- Structure As Smiles: "Nc1ccc2ncnc(NCCc3ccc(Oc4ccccc4)cc3)c2c1"
  Unit Abbreviation: "%"
  residual activity: 91
- Structure As Smiles: "Nc1nc(Nc2ccc(S(N)(=O)=O)cc2)nn1C(=S)Nc1c(F)cccc1F"
  Unit Abbreviation: "%"
  residual activity: 2

Task: Provide value of residual activity for this record tested with Tyrosine-protein kinase Fes/Fps (Homo sapiens) (UniProt P07332): CC(=O)O/N=C1\C(=C2\C(=O)Nc3cc(Br)ccc32)Nc2ccccc21
Output: 107

Task: Ok, now Cc1cc2ncc(-c3ccccc3)nc2cc1C
Output: 107
